# assayed system: human 5-HT2C receptor (Homo sapiens, UniProt P28335)
# Sequence (P28335 33-458): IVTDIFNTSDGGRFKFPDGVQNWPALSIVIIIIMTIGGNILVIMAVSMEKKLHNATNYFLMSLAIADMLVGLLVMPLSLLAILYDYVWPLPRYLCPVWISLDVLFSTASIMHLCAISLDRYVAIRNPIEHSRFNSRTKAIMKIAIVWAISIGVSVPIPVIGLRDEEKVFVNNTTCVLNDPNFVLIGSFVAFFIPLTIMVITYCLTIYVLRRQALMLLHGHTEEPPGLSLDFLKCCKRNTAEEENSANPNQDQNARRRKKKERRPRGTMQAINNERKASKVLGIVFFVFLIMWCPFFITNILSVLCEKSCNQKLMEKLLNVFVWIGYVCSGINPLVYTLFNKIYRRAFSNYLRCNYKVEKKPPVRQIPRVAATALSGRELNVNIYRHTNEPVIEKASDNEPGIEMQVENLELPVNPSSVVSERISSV
# assay details: 5-HT2C receptor-stimulated calcium mobilization (FLIPR) in CHO cells
# Assay type: cell-based
# assay setup: CHO; read-out: 5-HT2C Function EMax (%)
readout name: Emax (%)
Give the number; % is assumed, so skip it.

Completed entries (count: 4):
[
  {
    "molecule": "NCC1COc2cccc(-c3cc(F)ccc3F)c2O1 (centres unmarked) [Compound I-15]",
    "readout name": "Emax",
    "value reported": 60
  },
  {
    "molecule": "NCC1Oc2cc(Cl)cc(-c3ccccc3Cl)c2O1 (centres unmarked) [Compound I-90]",
    "readout name": "Emax",
    "value reported": 80
  },
  {
    "molecule": "NCC1Oc2cc(F)cc(-c3cc(Cl)ccc3Cl)c2O1 (centres unmarked) [Compound I-81]",
    "readout name": "Emax",
    "value reported": 80
  },
  {
    "molecule": "CNCC1COc2cccc(-c3ccccc3C(F)(F)F)c2O1 (centres unmarked) [Compound I-20]",
    "readout name": "Emax",
    "value reported": 40
  }
]

Shifting focus to the molecule that follows.
Prompt: Please indicate Emax recorded for COc1cccc(-c2cc(Cl)cc3c2O[C@@H](CN)CO3)c1OC [Compound I-63]
Completion: 50
